All values here come from PubChem BioAssay.

Tested on: Inhibin beta A chain (activin A)
Experiment description: INHBA (activin A) binders on microarrays, primary screen, biochemical, small-molecule microarray, 635 nm fluorescence scan (AID 1107);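 also: mouse activin A protein probed at 4.33 µg/mL on printed slides; score merges bound-protein fluorescence near 667 nm with spot signal-to-noise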
Test context: small-molecule microarray binding, higher = more signal
Readings of composite z-score for the listed molecules

These solved cases illustrate the format of a correct answer.
[[record]]
smiles_str = "CCOC(=O)C[C@H]1[C@H](OC(=O)c2cc3ccccc3oc2=O)[C@@H](NC(=O)c2ccc3ccccc3c2)c2cc(OCCCO)ccc2N1C(=O)Cc1ccc(OC)cc1"
measured_result = 0.237

[[record]]
smiles_str = "[N-]=[N+]=NCc1ccccc1C[C@]1(C(=O)N2CCOCC2)COC(c2ccc(OCCCO)cc2)=N1"
measured_result = 0.983

[[record]]
smiles_str = "C=C(CCCC)/C(=C/C[C@H](OC(C)=O)c1ccc(OCCO)cc1)c1cc(C(=O)OC)ccc1OC"
measured_result = 0.562


# context switch: different molecule, same composite z-score
Looking up C=C(COC)/C(=C/C[C@@H](OC(C)=O)c1ccc(CO)o1)c1cc(C(=O)OC)ccc1OC , I see its composite z-score listed as 1.08
